# Measured target: Alkaline phosphatase, tissue-nonspecific isozyme (Homo sapiens) (UniProt P05186)
# Sequence (P05186 whole entry, looked up): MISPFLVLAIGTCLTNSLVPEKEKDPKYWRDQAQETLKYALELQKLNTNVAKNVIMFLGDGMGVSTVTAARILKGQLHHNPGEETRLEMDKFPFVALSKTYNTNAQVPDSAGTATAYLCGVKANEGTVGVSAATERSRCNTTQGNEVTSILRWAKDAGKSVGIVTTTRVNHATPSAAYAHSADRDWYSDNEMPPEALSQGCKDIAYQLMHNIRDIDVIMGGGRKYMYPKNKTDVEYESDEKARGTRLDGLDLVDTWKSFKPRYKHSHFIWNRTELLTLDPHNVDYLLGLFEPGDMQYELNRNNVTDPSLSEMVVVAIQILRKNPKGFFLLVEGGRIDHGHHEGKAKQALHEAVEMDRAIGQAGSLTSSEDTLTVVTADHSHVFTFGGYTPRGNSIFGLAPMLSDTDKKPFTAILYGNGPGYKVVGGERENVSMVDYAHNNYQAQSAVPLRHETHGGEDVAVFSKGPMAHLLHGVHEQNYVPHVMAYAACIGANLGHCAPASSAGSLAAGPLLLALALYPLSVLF
# Method summary: human TNAP enzyme inhibitors, primary screen, biochemical, luminescent, no phosphate acceptor, uHTS (AID 1012);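 further: 0% = DMSO negative control and 100% = EDTA positive control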
# Settings: purified TNAP, CDP-star luminescence, 30 min; at 20 µM; hits give high values
The whole screen tested about 200,000 compounds, of which about 520 (0.26%) were called active. Only a selection was taken, and actives are over-represented in it overall.

>  <Molecule>
COc1ccc(-c2[nH]ncc2CN(C)Cc2cc(C)[nH]n2)c(F)c1

>  <inhibition, %>
46.2

$$$$
>  <Molecule>
CCN(c1ccccc1)S(=O)(=O)c1ccc2[nH]c(=O)[nH]c2c1

>  <inhibition, %>
64.9

$$$$
>  <Molecule>
O=C(NCc1ccccc1)C1CCCN(S(=O)(=O)c2cccs2)C1 (configuration not stated)

>  <inhibition, %>
-5.5

$$$$
>  <Molecule>
COc1ccc(N2C(=O)C(O)C2c2ccc(C)cc2)cc1 (configuration not stated)

>  <inhibition, %>
-8.2

$$$$
>  <Molecule>
COc1ccc(OC)c(S(=O)(=O)Nc2cccc(-c3ccc4nncn4n3)c2)c1

>  <inhibition, %>
-5.3

$$$$
>  <Molecule>
Cc1cc(=O)oc(C)c1C(=O)NCCN(C)Cc1ccccc1

>  <inhibition, %>
-6.1

$$$$
>  <Molecule>
Cc1ccc(C(=O)NC(=S)Nc2ccc3[nH]c(=O)[nH]c3c2)cc1C

>  <inhibition, %>
-9.4

$$$$
>  <Molecule>
COc1ccc(S(=O)(=O)NCC2CCCN(C(=O)c3occc3C)C2)cc1 (configuration not stated)

>  <inhibition, %>
-4.9

$$$$
>  <Molecule>
CCOC(=O)C1=C(C)Nc2nc3ccccc3n2C1c1cccs1 (configuration not stated)

>  <inhibition, %>
57.2

$$$$
>  <Molecule>
Cc1ccnc2nc(C(=O)Nc3nnc(-c4ccccc4)o3)nn12

>  <inhibition, %>
52.3

$$$$
>  <Molecule>
CCCN(CC1COc2ccccc2O1)C(=S)Nc1ccc(C)cc1 (configuration not stated)

>  <inhibition, %>
-16

$$$$
>  <Molecule>
Cc1ccccc1OCCOc1ccc([N+](=O)[O-])cc1/C=N/n1cnnc1

>  <inhibition, %>
-2.8

$$$$
>  <Molecule>
CC(=O)NC(=S)NNC(=O)c1ccc(Br)cc1

>  <inhibition, %>
-155

$$$$
>  <Molecule>
N/C(=N\OC(=O)c1ccc2c(c1)OCO2)c1ccc(Br)cc1

>  <inhibition, %>
-7

$$$$
>  <Molecule>
CCOCCCN(C(=O)Cn1nnc(-c2ccc(OC)c(OC)c2)n1)C(CC)C(=O)NC1CCCC1 (configuration not stated)

>  <inhibition, %>
-11.1

$$$$
>  <Molecule>
CC(C)c1ccc(Nc2nnc(SCC(=O)c3nnc(-c4ccccc4)o3)s2)cc1

>  <inhibition, %>
-1.3

$$$$
>  <Molecule>
O=C1COc2ccc(C(=O)COC(=O)C3CC(O)CN3S(=O)(=O)c3ccc(Cl)cc3)cc2N1 (configuration not stated)

>  <inhibition, %>
-11.9

$$$$
>  <Molecule>
O=C(NCCc1ccccc1)C1CCC(Cn2c(=O)c3ccccc3n(Cc3cccnc3)c2=O)CC1 (configuration not stated)

>  <inhibition, %>
-0.3

$$$$
>  <Molecule>
COc1cccc(NC(=S)NC(=O)c2c(Cl)c(C)nn2C)c1

>  <inhibition, %>
12.5

$$$$
>  <Molecule>
O=C(CSc1nnc(-c2ccncc2)n1-c1ccc(Cl)cc1)Nc1ccc(C(=O)O)cc1

>  <inhibition, %>
0.2

$$$$
>  <Molecule>
COc1ccc(-c2[nH]ncc2CN(C)Cc2c(C)n[nH]c2C)c(OC)c1

>  <inhibition, %>
-8.9

$$$$
>  <Molecule>
Cc1cc(NC(=O)CN2C(=O)NC(C)(CCc3ccccc3)C2=O)no1 (configuration not stated)

>  <inhibition, %>
-3

$$$$
